Data origin, for the record: BindingDB's records for doi:10.1021/jm060290f

I'd appreciate it if you could supply IC50 values for the items below.
# Target: sterol 24-C-methyltransferase (Leishmania major)
# Assay details: Inhibition of Leishmania major recombinant 24-SMT

These recorded examples may help you get a feel for the data.
Molecule	IC50
CC(=O)O[C@H]1CC[C@@]2(C)C(=CCC3[C@@H]4CC[C@H]([C@H](C)CNCC[C@H](NC(=O)OC(C)(C)C)C(=O)O)[C@@]4(C)CC[C@@H]32)C1 (stereo partly drawn)	> 100 µM
C[C@H](C(=O)NCCCCCCCC(=O)O)[C@H]1CC[C@H]2C3CC=C4C[C@@H](O)CC[C@]4(C)[C@H]3CC[C@]12C (stereo partly drawn)	> 100 µM

Now consider the entry below.
Note IC50 for the molecule shown: C[C@H](C(=O)NCCC[C@H](NC(=O)OCc1ccccc1)C(=O)O)[C@H]1CC[C@H]2C3CC=C4C[C@@H](O)CC[C@]4(C)[C@H]3CC[C@]12C (stereo partly drawn)
> 100 µM

----------
# Target: sterol 24-C-methyltransferase (Leishmania major)
# Assay details: Inhibition of Leishmania major recombinant 24-SMT
Measure: IC50

These recorded examples may help you get a feel for the data.
Compound	Target	Result
C[C@H](C(=O)NCCCC[C@H](NC(=O)OCc1ccccc1)C(=O)O)[C@H]1CC[C@H]2C3CC=C4C[C@@H](O)CC[C@]4(C)[C@H]3CC[C@]12C (stereo partly drawn)	sterol 24-C-methyltransferase (Leishmania major)	> 100 µM
CC(=O)O[C@H]1CC[C@@]2(C)C(=CCC3[C@@H]4CC[C@H]([C@H](C)CNC[C@H](NC(=O)OC(C)(C)C)C(=O)O)[C@@]4(C)CC[C@@H]32)C1 (stereo partly drawn)	sterol 24-C-methyltransferase (Leishmania major)	> 100 µM

Now consider the entry below.
Note IC50 for the compound shown: C[C@H](C(=O)NCCCCC(=O)O)[C@H]1CC[C@H]2C3CC=C4C[C@@H](O)CC[C@]4(C)[C@H]3CC[C@]12C (stereo partly drawn)
> 100 µM

----------
# Target: sterol 24-C-methyltransferase (Trypanosoma brucei brucei)
# Assay details: Inhibition of Trypanosoma brucei brucei recombinant 24-SMT
pIC50: −log10 of the molar value.
Measure: pIC50

Fill in: pIC50 on sterol 24-C-methyltransferase (Trypanosoma brucei brucei), entry COC(=O)CCCCCCCNC[C@@H](C)[C@H]1CC[C@H]2C3CC=C4C[C@@H](OC(C)=O)CC[C@]4(C)[C@H]3CC[C@]12C (stereo partly specified)
< 4.00
